Where do the numbers come from? From PubChem BioAssay (NCI).

# Method: NCI Yeast Anticancer Drug Screen. Data for the rad50 strain (AID 155);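 further: 0% = growth of vehicle-only cultures of the same strain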
# Study Conditions: S. cerevisiae rad50 strain growth inhibition; at 50.0 µM; hits give high values
Compounds without any hit were thinned out: in the full panel of roughly 79,000, 15% have a hit.
Experimental Readout: growth inhibition (%)
Answers are plain numbers, in %.

- Molecule: "Cc1ccc(S(=O)CC(CF)OCn2cc(C)c(=O)[nH]c2=O)cc1 (centres undefined)"
  Unit Info: "%"
  growth inhibition: 1.6
- Molecule: "CC(=O)c1ccc(O)c(CN(C2CCCCC2)C2CCCCC2)c1O"
  Unit Info: "%"
  growth inhibition: -2.9
- Molecule: "CN(C)Cc1cc(C(=O)/C=C/c2ccc(Cl)cc2Cl)cc(CN(C)C)c1O"
  Unit Info: "%"
  growth inhibition: 6.4
- Molecule: "NS(=O)(=O)c1ccc(NC(=O)Nc2cccc(C(F)(F)F)c2)cc1"
  Unit Info: "%"
  growth inhibition: 23.9
- Molecule: "c1ccc2c(c1)CCC2"
  Unit Info: "%"
  growth inhibition: 12.1

Record growth inhibition for all entries; do not skip any.
1. CC(C)(C)OC(=O)NC(CSCc1ccc(C(=O)c2ccccc2)cc1)C(=O)O (centres undefined)
2. BrC1C2CC/C=C\CCC12 (centres undefined)
3. CC12CCC(O)CC1=CCC1C2CCC2(C)C1CCC21SCCS1 (centres undefined)
4. ClC(Cl)C1OCCOCCO1
5. CC(C)C(=O)Nc1ccc(Cl)c(Cl)c1
6. Cc1ccccc1-n1c(C)nc2cc(NC(N)=S)ccc2c1=O
7. CC(=O)OCc1nc2ncnc(N)c2[nH]1

1: -23.9; 2: 43.9; 3: 2.35; 4: -16.1; 5: 33.9; 6: -19.1; 7: 0.5

* * *

# Method: NCI Yeast Anticancer Drug Screen. Data for the bub3 strain (AID 167)
# Study Conditions: S. cerevisiae bub3 mutant strain, at 50.0 µM, hits give high values
The panel holds about 79,000 compounds, 15% with a hit somewhere; the sample as a whole holds those more often.
Please provide measured growth inhibition for the entries that follow.
Give bare numbers, in %.

Batch of 5 molecules: report growth inhibition for each.
1. O=C(O)CC(=O)c1ccccc1
2. Brc1cccc(-c2nnc(-c3ccc4ccccc4c3)o2)c1
3. ON1c2ccccc2-c2ccccc2C1(c1ccccc1)c1ccccc1
4. O=C1C2C(C(=O)N1c1ccccc1)C1(c3cccnc3)NC(=O)C2(Cc2cccnc2)c2ccccc21 (stereo not drawn)
5. Cc1ccccc1C(=O)c1ccccc1Cc1cccc2ccccc12

1. 4.35
2. -9
3. 71.5
4. -1.55
5. 8.95

* * *

# Method: NCI Yeast Anticancer Drug Screen. Data for the cln2 rad14 strain (AID 165);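 further: 0% = growth equal to vehicle treated cultures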
# Study Conditions: S. cerevisiae cln2 rad14 strain, at 50.0 µM, hits give high values
This is part of a sample that, as a whole, favours compounds with a hit. Of some 79,000 tested, about 15% had one in any assay.
Kindly state growth inhibition for each of the entries shown.
Answers are plain numbers, in %.

Please review the following examples before continuing.
- Molecule: "CN1CC2=C(NC(=S)NC2c2ccccc2Cl)/C(=C/c2ccccc2Cl)C1 (configuration not stated)"
  Unit Info: "%"
  growth inhibition: 10.6
- Molecule: "C=CCOCC(COC(=O)CCCCCCCCCCCCCCCCC)OCC=C (configuration not stated)"
  Unit Info: "%"
  growth inhibition: 18.9
- Molecule: "NC(=O)c1cc[n+](-c2ccc([N+](=O)[O-])cc2[N+](=O)[O-])cc1"
  Unit Info: "%"
  growth inhibition: 34.6

Hi! Can you tell me growth inhibition for each of these molecules?
1. CC(C)OCCCN(Cn1c(=S)sc2ccccc21)Cn1c(=S)sc2ccccc21
2. O=C(NCCCN1CCCCCC1)C(c1ccccc1)C1CCCCC1 (configuration not stated)
3. CCCCCCCCC(=O)OCC(=O)N(C)C
4. Cc1cccc(-c2c3ccccc3cc3ccccc23)c1

1. 42.8
2. 13.9
3. 13.3
4. -3.1

* * *

Please provide measured growth inhibition for the entries that follow.
# Method: NCI Yeast Anticancer Drug Screen. Data for the rad50 strain (AID 155);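 further: 0% = growth of vehicle-only cultures of the same strain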
# Study Conditions: S. cerevisiae rad50 strain growth inhibition; at 50.0 µM; hits give high values
# Protocol: Growth inhibition of yeast strains with defined genetic alterations is measured as a screen for potential anti-cancer activity. Selected strains with alterations in DNA damage repair or cell cycle control were exposed to compounds and growth inhibition was measured relative to vehicle treated controls. The strain used in this assay is rad50
About 79,000 compounds went through this panel and 15% of them were active in at least one assay; those are over-represented in the sample as a whole.
One number for each entry, in %.

- Molecule: "Cc1ccc(NC(=O)Nc2ccccc2Cl)cc1Cl"
  Experimental Readout: "growth inhibition"
  Number: 12.6
- Molecule: "CCc1nnnn1-c1ccc(Br)cc1"
  Experimental Readout: "growth inhibition"
  Number: 8.8
- Molecule: "O=C1c2ccccc2C(=O)N1c1ccccc1Cl"
  Experimental Readout: "growth inhibition"
  Number: 4.45
- Molecule: "O=[N+]([O-])c1ccc(N=Cc2ccccc2O)c(O)c1"
  Experimental Readout: "growth inhibition"
  Number: 21.9
- Molecule: "Clc1ccccc1/C=N/N=C/c1ccccc1Cl"
  Experimental Readout: "growth inhibition"
  Number: 5.65

Go through the list and state growth inhibition for each entry.
1. CC(=O)c1cccc(C)n1
2. O=S(CC(O)(c1ccccc1)c1ccccc1)c1ccccc1 (centres undefined)
3. c1ccc2[nH]c3c(N=NC4=NCCN4)c4ccccc4c-3nc2c1
4. CN(c1ccccc1)S(=O)(=O)c1ccc([N+](=O)[O-])cc1
5. c1ccc2c(c1)ccc1c2c[n+](CCCCCCCC[n+]2cc3c4ccccc4ccc3c3ccccc32)c2ccccc12
6. COc1cccc(NC(=O)NC(C)(C)C)c1
7. COc1ccc(N2N=NCC2c2ccccc2[N+](=O)[O-])cc1 (centres undefined)

1: 29.8; 2: 6.55; 3: -10.5; 4: -13.4; 5: 88.4; 6: 8.2; 7: -10.6

Dear colleague, could you please provide growth inhibition for the molecules listed below?
1. COc1cc2ccc3c[n+]4ccccc4cc3c2cc1OC
2. O=C(NCCc1c[nH]c2ccccc12)C(F)(F)F
3. COc1ccc(N2C(=O)CC(c3cc(OC)c(OC)c(OC)c3)CC2=O)cc1

1: 9.25; 2: -15.8; 3: -3.7

Provide growth inhibition values for the following items, in order.
1. Cc1ccc(-c2nc3scc(C)n3n2)cc1
2. O=C(O)CO.[NH2-].[NH2-].[Pt+2]
3. Cc1ccc(NC(=S)NC2CCCCC2)cc1Cl

1: 0.85; 2: -10.1; 3: -2.4

Provide growth inhibition values for the following items, in order.
1. CC1(C)CC[C@]2(C(=O)O)CC[C@]3(C)C(=CC[C@@H]4[C@@]5(C)CC[C@H](OC6OC(CO)C(O)C(O)C6OC6OC(CO)C(O)C(O)C6O)C(C)(C)[C@@H]5CC[C@]43C)[C@@H]2C1 (some centres undefined)
2. CC1(O)C(=O)N(Cc2ccccc2)c2ccccc21 (centres undefined)
3. CC(=O)c1cc2c(cc1C)C(C)(C)CCC2C (centres undefined)
4. CCCCc1c(O)c(N=NC(N)=S)c2ccccc2c1O
5. Cn1c(=O)c2c(ncn2-c2ccc(N)cn2)n(C)c1=O
6. CC(CC(C)(C)C)C(=O)NC(N)=O (centres undefined)

1: 86.8; 2: 25.6; 3: -0.75; 4: 14.9; 5: -7.1; 6: 29.3

* * *

Exercise: for every item that follows, state its recorded growth inhibition.
# Method: NCI Yeast Anticancer Drug Screen. Data for the bub3 strain (AID 167)
# Study Conditions: S. cerevisiae bub3 mutant strain, at 50.0 µM, hits give high values
This is part of a sample that, as a whole, favours compounds with a hit. Of some 79,000 tested, about 15% had one in any assay.
One number for each entry, in %.

- Compound: "NC(=O)N/N=C/C1CCc2ccccc2C1 (centres undefined)"
  Experimental Readout: "growth inhibition"
  Number: -1.4
- Compound: "CC1C(=O)OC2CC[N+]3(C(=O)C(F)(F)F)CC4OC4(COC(=O)C(C)(O)C1(C)O)C23 (centres undefined)"
  Experimental Readout: "growth inhibition"
  Number: 0.65
- Compound: "N#CC(N)(C(=O)C(=O)NCCCNC(=O)C(=O)C(N)(C#N)c1ccc(Cl)cc1)c1ccc(Cl)cc1 (centres undefined)"
  Experimental Readout: "growth inhibition"
  Number: -35.1

Here are 3 compounds. What values of growth inhibition were reported for them?
1. N#CC(C(=O)O)C(c1cccc2ccccc12)c1cccc2ccc3ccccc3c12 (centres undefined)
2. CC(C)N1CCC(OC(=O)Nc2ccccc2)C1 (centres undefined)
3. c1cc2cc(C3=NCCN3)[nH]c2cc1C1=NCCN1

1: 7.05; 2: -14.5; 3: 18.6

* * *

Field: growth inhibition. Provide a value for each of the molecules that follow.
# Method: NCI Yeast Anticancer Drug Screen. Data for the mec2-1 strain (AID 157)
# Study Conditions: S. cerevisiae mec2-1 strain, at 50.0 µM, hits give high values
About 79,000 compounds went through this panel and 15% of them were active in at least one assay; those are over-represented in the sample as a whole.
Answers are plain numbers, in %.

- Molecule: "CC(CCC(=O)CS(C)=O)C1CCC2C3CCC4CCCCC4(C)C3CCC12C (stereo not drawn)"
  Number: -20.4
- Molecule: "ClC1(Cl)C2CCOC21n1cnc2ccccc21 (stereo not drawn)"
  Number: -5.1
- Molecule: "Cc1c(C)n2c(=O)n(-c3ccccc3)c(=O)n2c1=O"
  Number: -27.1
- Molecule: "CN(CCC(=O)O)S(=O)(=O)c1ccccc1"
  Number: -17.2
- Molecule: "C=C1C(=O)O[C@H]2[C@H]1[C@H](OC(=O)/C(C)=C\\C)CC(=C)[C@@H]1[C@H](O)[C@H]3O[C@@]3(C)[C@@]12O"
  Number: -14.8

I'm hoping you can list growth inhibition for every molecule here, please.
1. CC(=O)c1cccc(N)c1
2. CCCNC(=S)NNC(N)=O
3. COC1CC(NC(C)=O)C(O)C(C)O1 (stereo not drawn)
4. O=C(O)CC(Sc1ccccc1)c1ccccc1 (stereo not drawn)
5. CC(C)(C)OC(=O)N1CCCC1C(=O)Oc1ccc([N+](=O)[O-])cc1 (stereo not drawn)

1. -5.75
2. 7.35
3. -12.4
4. -9.2
5. 19.4

Record growth inhibition for all entries; do not skip any.
1. COC(=O)c1cc2/c(=N/O)c3ccccc3sc2o1
2. CC(CS)CS
3. CCCc1cc(C)cc(N=Cc2ccccc2)c1O
4. CC1=C(O)C(=O)C(C2=C(O)C(=O)C(C)=C(O)C2=O)=C(O)C1=O
5. CC1CCCCN1Cc1ccccc1COC(=O)c1cccc(Br)c1 (stereo not drawn)

-23.1
-0.5
97.6
-12.4
-1.65
